All values here come from patent US20130060020A1.

system: Aβ-40; assay: Aβ-40 MSD 3-plex ELISA, conditioned media of 2B7 cells; type: cell-based; details: Homo sapiens, 5 hours treatment, inflection of dose response curve, read-out: Aβ 40 DR IC50 Inflection
METRIC: IC50

Would you mind telling me what IC50 value was observed for CCO[C@@H]([C@H]1C[C@@H](C)[C@H]2[C@H](O1)[C@H](O)[C@@]1(C)[C@@H]3CC[C@H]4C(C)(C)[C@@H](O[C@H]5CN(C6CCN(C7COC7)CC6)CCO5)CC[C@@]45C[C@@]35CC[C@]21C)C(C)(C)O ?
1 to 5 µM

And then CCO[C@@H]([C@H]1C[C@@H](C)[C@H]2[C@H](O1)[C@H](O)[C@@]1(C)[C@@H]3CC[C@H]4C(C)(C)[C@@H](O[C@H]5CN(CCNCCOC)CCO5)CC[C@@]45C[C@@]35CC[C@]21C)C(C)(C)O , what is it?
1 to 5 µM

And then CCO[C@@H]([C@H]1C[C@@H](C)[C@H]2[C@H](O1)[C@H](O)[C@@]1(C)[C@@H]3CC[C@H]4C(C)(C)[C@@H](O[C@H]5CN(CC6CN(C7CCC7)C6)CCO5)CC[C@@]45C[C@@]35CC[C@]21C)C(C)(C)O , what is it?
> 5 µM

And then CCO[C@@H]([C@H]1C[C@@H](C)[C@H]2[C@H](O1)[C@H](O)[C@@]1(C)[C@@H]3CC[C@H]4C(C)(C)[C@@H](O[C@H]5CN(C6CCN(C7CCC7)CC6)CCO5)CC[C@@]45C[C@@]35CC[C@]21C)C(C)(C)O , what is it?
1 to 5 µM
